Assay: Concentration tested in vitro to inhibit PAF-induced maximum aggregation (PAF-Antagonistic activity) by 50%.
readoutType: log10 IC50 (log10 of the value in nM)

compound | log10 IC50
N#CC(c1cccnc1)N1CCN(C(=O)C(CCc2ccccc2)c2ccccc2)CC1 (stereo unspecified) | 3.41
CN(C)c1ccc(C(C#N)N2CCN(C(=O)CC(c3ccccc3)c3ccccc3)CC2)cc1 (stereo unspecified) | 5.32
O=C(CC(c1ccccc1)c1ccccc1)N1CCC(Nc2cccnc2)CC1 | 1.94
CN(CC(=O)N1CCN(C(C#N)c2cccnc2)CC1)c1ccccc1 (stereo unspecified) | 3.45
N#CC(c1cccnc1)N1CCN(C(=O)CNc2ccccc2)CC1 (stereo unspecified) | 2.11
NC(=O)C(c1cccnc1)N1CCN(C(=O)C(c2ccccc2)c2ccccc2)CC1 (stereo unspecified) | 5.30
Cn1ccc(C(C#N)N2CCN(C(=O)CC(c3ccccc3)c3ccccc3)CC2)c1 (stereo unspecified) | 3.41
N#CC1(Nc2cccnc2)CCN(C(=O)CNC(c2ccccc2)c2ccccc2)CC1 | 2.30
N#CC(c1cccnc1)N1CCN(C(=O)C(c2ccccc2)c2ccccc2)CC1 (stereo unspecified) | 1.00
N#CC(c1cccnc1)N1CCN(C(=O)C(Cc2ccccc2)c2ccccc2)CC1 (stereo unspecified) | 2.36
N#CC(c1cccnc1)N1CCN(C(=O)CN(Cc2ccccc2)Cc2ccccc2)CC1 (stereo unspecified) | 1.51
CCCCC(=O)N1CCN(C(C#N)c2cccnc2)CC1 (stereo unspecified) | 3.41
COc1cc(CCC(=O)N2CCN(C(=O)c3cc(OC)c(OC)c(OC)c3)CC2)cc(OC)c1OC | 4.86
N#Cc1cccc(C(C#N)N2CCN(C(=O)CC(c3ccccc3)c3ccccc3)CC2)c1 (stereo unspecified) | 3.87
COc1cc(C(=O)N2CCN(C(=O)c3cccnc3)CC2)cc(OC)c1OC | 3.72
N#CC(c1cccnc1)N1CCN(C(=O)C(Cc2ccccc2)Cc2ccccc2)CC1 (stereo unspecified) | 1.04
CN(CCCc1ccccc1)CC(=O)N1CCN(C(C#N)c2cccnc2)CC1 (stereo unspecified) | 3.34
CC(C(=O)N1CCN(C(C#N)c2cccnc2)CC1)c1ccccc1 (stereo unspecified) | 1.32
N#CC(c1cccnc1)N1CCN(C(=O)CCc2ccccc2)CC1 (stereo unspecified) | 2.72
N#CC(c1cccnc1)N1CCN(CCNC(=O)CC(c2ccccc2)c2ccccc2)CC1 (stereo unspecified) | 3.74
N#CC(c1cccnc1)N1CCN(C(=S)C(c2ccccc2)c2ccccc2)CC1 (stereo unspecified) | 1.36

----------
Experiment: Concentration tested in vitro to inhibit PAF-induced maximum aggregation (PAF-Antagonistic activity) by 50%.
pIC50: −log10 of the molar value.
readoutType: pIC50

compound | readoutType | readoutNumber
N#CC(c1cccnc1)N1CCN(C(=O)CNC(Cc2ccccc2)c2ccccc2)CC1 (stereo not given) | pIC50 | 7.30
N#CC(c1cccnc1)N1CCN(C(=O)CNCCC(c2ccccc2)c2ccccc2)CC1 (stereo not given) | pIC50 | 7.07
CC(c1cccnc1)N1CCN(C(=O)C(c2ccccc2)c2ccccc2)CC1 (stereo not given) | pIC50 | 5.92
N#CC(c1cccnc1)N1CCN(C(=O)NC(c2ccccc2)c2ccccc2)CC1 (stereo not given) | pIC50 | 6.44
CC(NCC(=O)N1CCN(C(C#N)c2cccnc2)CC1)c1ccccc1 (stereo not given) | pIC50 | 7.44
N#CC(c1cccnc1)N1CCN(CCC(c2ccccc2)c2ccccc2)CC1 (stereo not given) | pIC50 | 6.20
O=C(CC(c1ccccc1)c1ccccc1)N1CCN(C(=O)c2ccncc2)CC1 | pIC50 | 5.72
N#CC(c1cccnc1)C1CCN(C(=O)C(c2ccccc2)c2ccccc2)CC1 (stereo not given) | pIC50 | 7.68
COc1cc(C(=O)N2CCN(C(=S)c3cccnc3)CC2)cc(OC)c1OC | pIC50 | 5.89
N#CC(c1cccnc1)C1CCN(C(=O)CNC(c2ccccc2)c2ccccc2)CC1 (stereo not given) | pIC50 | 7.62
